target_entity: human CD33 N76A (human, UniProt P20138 18-364)
Sequence (P20138 18-364 N76A limits assumed): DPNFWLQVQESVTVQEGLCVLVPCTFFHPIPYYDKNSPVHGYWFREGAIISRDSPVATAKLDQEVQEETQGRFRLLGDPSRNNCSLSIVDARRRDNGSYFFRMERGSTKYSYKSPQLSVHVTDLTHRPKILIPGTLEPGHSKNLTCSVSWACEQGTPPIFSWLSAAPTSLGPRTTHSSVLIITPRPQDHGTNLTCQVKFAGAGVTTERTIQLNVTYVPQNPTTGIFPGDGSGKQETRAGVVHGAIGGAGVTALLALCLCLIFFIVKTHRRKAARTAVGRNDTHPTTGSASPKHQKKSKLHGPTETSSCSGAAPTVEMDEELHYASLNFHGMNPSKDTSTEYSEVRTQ
test: alanine scan, flow cytometry;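 note: HEK293-T cells transiently expressing single-residue alanine mutants of CD33 (alanine swapped to serine), antibody binding read by fluorescence in duplicate, background-subtracted, expressed relative to wild-type CD33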

binder: Refmab #2 (antibody, V domains shown, Full-length format is human IgG1 Fc silent (PG-LALA); The alanine scan used IgG or Fab) VH: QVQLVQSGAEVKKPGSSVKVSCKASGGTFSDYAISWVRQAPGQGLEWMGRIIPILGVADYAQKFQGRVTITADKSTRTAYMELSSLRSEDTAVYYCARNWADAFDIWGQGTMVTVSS VL: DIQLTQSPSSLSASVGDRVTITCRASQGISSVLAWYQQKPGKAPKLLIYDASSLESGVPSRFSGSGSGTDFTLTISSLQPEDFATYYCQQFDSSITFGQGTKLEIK
Mean % WT Binding, % WT: 106
